# credit: patent US11957687B2

subjectOfTest: UniProtKB Q7Z5P4
protocol: HSD17B13 enzymatic inhibition assay (150 nM or 50 nM HSD17B13)
Assay type: biochemical
conditionInfo: 50 nM HSD17B13; read-out: Inhibition of 50 nM of HSD17B13 IC50
pIC50: −log10 of the molar value.
attributeMeasured: pIC50

compound="Cc1ccc(C(NC(=O)c2ccc(C(F)F)[nH]c2=O)c2ccc(C)cc2)cc1 [Compound 61]" resultvalue=5.65
compound="Cc1ccc2c(c1)Oc1cc(C)ccc1C2NC(=O)c1cc(C)c(C(F)(F)F)[nH]c1=O [Compound 166]" resultvalue=7.22
compound="C=CCc1cc(NC(=O)c2ccc(C(F)(F)F)[nH]c2=O)cc(/C=C/C)n1 [Compound 269]" resultvalue=5.30
compound="Cc1ccc2c(c1)Oc1cc(C)ccc1C2NC(=O)c1ccc(C(F)(F)F)[nH]c1=O [Compound 52]" resultvalue=7.10

P. COc1ccc2c(c1)Oc1ccccc1C2NC(=O)c1ccc(C(F)(F)F)[nH]c1=O (centres unmarked) [Compound 54]
Q. C=CCc1cc(NC(=O)c2ccc(C(F)(F)F)[nH]c2=O)cc(CC=C)n1 [Compound 267]
Query block: // select label with min value of measured pIC50 from [ P , Q ] Answer with the label corresponding to your selection.
Result block: Q

----------
subjectOfTest: HSD17B13 (Homo sapiens (Human))
Sequence (Q7Z5P4 other isoform, or with tags, fused parts or gaps): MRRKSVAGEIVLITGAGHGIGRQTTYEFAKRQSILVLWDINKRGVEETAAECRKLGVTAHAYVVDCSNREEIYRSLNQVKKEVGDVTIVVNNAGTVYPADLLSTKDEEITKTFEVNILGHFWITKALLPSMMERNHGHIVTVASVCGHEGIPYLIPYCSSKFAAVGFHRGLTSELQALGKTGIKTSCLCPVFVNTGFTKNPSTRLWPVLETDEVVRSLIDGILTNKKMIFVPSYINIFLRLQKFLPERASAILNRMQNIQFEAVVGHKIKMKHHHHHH
protocol: HSD17B13 enzymatic inhibition assay (150 nM or 50 nM HSD17B13)
Type: biochemical
conditionInfo: 50 nM HSD17B13; read-out: Inhibition of 50 nM of HSD17B13 IC50
pIC50: −log10 of the molar value.
attributeMeasured: pIC50

molecule="Cc1cccc(C(NC(=O)c2ccc(C(F)(F)F)[nH]c2=O)c2ccccc2S(C)(=O)=O)c1 (centres unmarked)" resultvalue=5.15
molecule="O=C(NC1c2ccc(Cl)cc2Sc2cccc(Cl)c21)c1ccc(C(F)(F)F)[nH]c1=O (centres unmarked)" resultvalue=6.19
molecule="O=C(NC1CCCc2ccccc21)c1ccc(C(F)(F)F)[nH]c1=O (centres unmarked)" resultvalue=5.84
molecule="O=C(NC(c1ccccc1)c1cccc(C(F)(F)F)c1)c1ccc(C(F)(F)F)[nH]c1=O (centres unmarked)" resultvalue=5.51
molecule=CN1c2ccccc2C(NC(=O)c2ccc(C(F)(F)F)[nH]c2=O)c2ccccc21 resultvalue=5.87
molecule="C=Cc1cc(C(=O)NC2c3ccc(Cl)cc3Oc3cccc(Cl)c32)c(=O)[nH]c1C(F)(F)F (centres unmarked)" resultvalue=6.46
molecule=O=C(NC1c2ccccc2CCc2ccccc21)c1ccc(C(F)(F)F)[nH]c1=O resultvalue=5.78
molecule="CCC1CCc2cc(OC)ccc2C1NC(=O)c1ccc(C(F)(F)F)[nH]c1=O (centres unmarked)" resultvalue=7.00

a. Cc1cc(C(F)(F)F)[nH]c(=O)c1C(=O)NC(c1ccccc1)c1ccc(Cl)cc1 (centres unmarked)
b. O=C(NC(c1ccc(C(F)(F)F)cc1)c1ccc(C(F)(F)F)cc1)c1ccc(C(F)(F)F)[nH]c1=O
Query block: Smaller pIC50 value, a vs b ? # answer = label of selected item
Result block: b

1. CS(=O)(=O)Nc1ccc(C(NC(=O)c2ccc(C(F)(F)F)[nH]c2=O)c2ccccc2)cc1 (centres unmarked)
2. COc1ccc2c(c1)Oc1cc(OC)ccc1C2NC(=O)c1cc(C)c(C(F)(F)F)[nH]c1=O
Query block: Param metric = pIC50; output whichever of 1 , 2 has the minimum value. Respond using the label that marks the chosen record.
Result block: 1
(1: 5.96, 2: 6.96)

P. Cc1ccc(CNC(=O)c2ccc(C(F)(F)F)[nH]c2=O)cc1
Q. CCCC1Cc2cc(C)ccc2C1NC(=O)c1ccc(C(F)(F)F)[nH]c1=O (centres unmarked)
R. O=C(NC1c2ccc(Cl)cc2Oc2cc(Cl)ccc21)c1cnc(C(F)(F)F)[nH]c1=O
Query block: # sort list by recorded pIC50, greatest to least Answer with the labels in sequence, matching the requested order.
Result block: Q, R, P
(Q: 7.22, R: 6.64, P: 5.66)

----------
subjectOfTest: HSD17B13 (Homo sapiens (Human))
protocol: HSD17B13 enzymatic inhibition assay (150 nM or 50 nM HSD17B13)
Format: biochemical
conditionInfo: 50 nM HSD17B13; read-out: Inhibition of 50 nM of HSD17B13 IC50
attributeMeasured: IC50 (µM)

molecule="Cc1ccc(C(CC2CCCC2)NC(=O)c2ccc(C(F)(F)F)[nH]c2=O)cc1 (stereo not shown)" resultvalue=0.11
molecule="O=C(NC1c2ccccc2Oc2c(Cl)cccc21)c1ccc(C(F)(F)F)[nH]c1=O (stereo not shown)" resultvalue=1.03

a. Cc1ccc(C(NC(=O)c2ccc(C(F)(F)F)[nH]c2=O)c2ccccc2)c(S(C)(=O)=O)c1 (stereo not shown)
b. O=C(NC1CC(CO)Cc2ccccc21)c1ccc(C(F)(F)F)[nH]c1=O (stereo not shown)
Query block: Determine, for a and b , which has the greater value of IC50. // caller expects the label of the chosen entry
Result block: b

----------
protocol: Microsome stability assay, mouse liver microsomes
Type: in vitro ADME
conditionInfo: 60 min; 1 μM compound, 0.5 mg/mL microsomal protein
attributeMeasured: Microsome Stability Mouse liver microsomes % Remaining @60 min (%)

compound=CCC[C@@H]1C[C@H](NC(=O)c2ccc(C(F)(F)F)[nH]c2=O)c2ccc(C)cc2N1 resultvalue=56.20
compound="CCC1Cc2cc(C)ccc2C1NC(=O)c1ccc(C(F)(F)F)[nH]c1=O (stereo not shown)" resultvalue=26.50
compound=CCC[C@@H]1C[C@@H](NC(=O)c2ccc(C(F)(F)F)[nH]c2=O)c2cc(C)ccc2N1 resultvalue=52.90
compound="O=C(NC(c1ccccc1)c1ccc(CC(F)(F)F)cc1)c1ccc(C(F)(F)F)[nH]c1=O (stereo not shown)" resultvalue=56.90
compound="CCCC1CCc2cc(Cl)ccc2C1NC(=O)c1ccc(C(F)(F)F)[nH]c1=O (stereo not shown)" resultvalue=38.20
compound=Cc1ccc2c(c1)[C@H](O)CC[C@H]2NC(=O)c1ccc(C(F)(F)F)[nH]c1=O resultvalue=105
compound=O=C(NC(c1ccccc1)c1ccccc1)c1ccc(C(F)(F)F)[nH]c1=O resultvalue=29.00
compound=O=C(NC(c1ccc(Cl)cc1)c1ccc(Cl)cc1)c1ccc(C(F)(F)F)[nH]c1=O resultvalue=70.60
compound=CC[C@@H]1C[C@H](NC(=O)c2ccc(C(F)(F)F)[nH]c2=O)c2ccc(C)cc2N1 resultvalue=87
compound="Cc1ccc2c(c1)SC(C)CC2NC(=O)c1ccc(C(F)(F)F)[nH]c1=O (stereo not shown)" resultvalue=43

1. CCC1CCc2cc(OC)ccc2C1NC(=O)c1ccc(C(F)(F)F)[nH]c1=O (stereo not shown)
2. CCCC1Cc2cc(C)ccc2C(NC(=O)c2ccc(C(F)(F)F)[nH]c2=O)C1 (stereo not shown)
Query block: Which of these two has the smaller recorded Microsome Stability Mouse liver microsomes % Remaining @60 min: 1 or 2 ? When you have decided, please share the label of that item.
Result block: 2

----------
subjectOfTest: HSD17B13 (Homo sapiens (Human))
protocol: HSD17B13 enzymatic inhibition assay (150 nM or 50 nM HSD17B13)
Type: biochemical
conditionInfo: 50 nM HSD17B13; read-out: Inhibition of 50 nM of HSD17B13 IC50
attributeMeasured: IC50 (nM)

Solved entries (count: 2):
compound=COc1ccc2c(c1)Oc1cc(OC)ccc1C2NC(=O)c1cc(OC2CCOCC2)c(C(F)(F)F)[nH]c1=O measureunit=nM resultvalue=70
compound=Cc1ccc2c(c1)S(=O)(=O)c1cc(C)ccc1C2NC(=O)c1cc(-c2ccncc2)c(C(F)(F)F)[nH]c1=O measureunit=nM resultvalue=90

P. Cc1ccc2c(c1)CCC(C)C2NC(=O)c1ccc(C(F)(F)F)[nH]c1=O (stereo not shown)
Q. Cc1ccc2c(c1)N(CCOCc1ccccc1)CCC2NC(=O)c1ccc(C(F)(F)F)[nH]c1=O (stereo not shown)
R. COc1cc(-c2cc(C(=O)NC3c4ccc(C)cc4Oc4cc(C)ccc43)c(=O)[nH]c2C(F)(F)F)ccn1
S. Cc1ccc2c(c1)Oc1cccc(C)c1C2NC(=O)c1cc(C2=CCOCC2)c(C(F)(F)F)[nH]c1=O (stereo not shown)
Query block: Order the records, beginning with the lowest IC50 and ending with the highest. The response must list the labels following the requested ordering.
Result block: R, P, S, Q

----------
subjectOfTest: HSD17B2 (Homo sapiens (Human), UniProt P37059)
Sequence (P37059 other isoform, or with tags, fused parts or gaps): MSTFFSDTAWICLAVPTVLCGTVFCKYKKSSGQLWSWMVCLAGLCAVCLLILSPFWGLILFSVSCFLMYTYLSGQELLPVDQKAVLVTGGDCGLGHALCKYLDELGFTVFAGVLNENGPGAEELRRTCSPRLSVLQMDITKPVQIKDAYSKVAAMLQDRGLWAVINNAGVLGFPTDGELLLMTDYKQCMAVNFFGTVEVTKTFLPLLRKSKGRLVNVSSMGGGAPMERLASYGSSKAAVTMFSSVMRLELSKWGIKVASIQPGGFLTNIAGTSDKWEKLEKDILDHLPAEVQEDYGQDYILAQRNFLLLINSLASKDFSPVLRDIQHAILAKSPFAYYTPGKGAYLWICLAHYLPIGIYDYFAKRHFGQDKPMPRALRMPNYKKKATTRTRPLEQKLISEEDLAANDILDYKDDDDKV
pIC50: −log10 of the molar value.
attributeMeasured: pIC50

compound="Cc1ccc2c(c1)Sc1cc(C)ccc1C2NC(=O)c1cc(-c2ccncc2)c(C(F)(F)F)[nH]c1=O [Compound 495]" subjectoftest="HSD17B2 (Homo sapiens (Human), UniProt P37059)" resultvalue=4.71
compound="O=C(NC1c2ccccc2Oc2cc(CC(F)(F)F)ccc21)c1ccc(C(F)(F)F)[nH]c1=O (stereo not shown) [Compound 141]" subjectoftest="HSD17B2 (Homo sapiens (Human), UniProt P37059)" resultvalue=5.14

a. Cc1ccc2c(c1)Oc1cc(C)ccc1C2NC(=O)c1cc(N2CCCCC2)c(C(F)(F)F)[nH]c1=O [Compound 436]
b. O=C(NC1c2ccccc2Oc2ccc(C3CC3)cc21)c1ccc(C(F)(F)F)[nH]c1=O (stereo not shown) [Compound 161]
Query block: Name the one with the greater pIC50 value, either a or b as given. Reply briefly: the label of your chosen item.
Result block: b
